- subject of test: COX-1 (Homo sapiens, UniProt P23219)
- Construct: Fresh blood from male or female volunteers is collected into vacutainers containing no anticoagulants
- Sequence (P23219 24-599): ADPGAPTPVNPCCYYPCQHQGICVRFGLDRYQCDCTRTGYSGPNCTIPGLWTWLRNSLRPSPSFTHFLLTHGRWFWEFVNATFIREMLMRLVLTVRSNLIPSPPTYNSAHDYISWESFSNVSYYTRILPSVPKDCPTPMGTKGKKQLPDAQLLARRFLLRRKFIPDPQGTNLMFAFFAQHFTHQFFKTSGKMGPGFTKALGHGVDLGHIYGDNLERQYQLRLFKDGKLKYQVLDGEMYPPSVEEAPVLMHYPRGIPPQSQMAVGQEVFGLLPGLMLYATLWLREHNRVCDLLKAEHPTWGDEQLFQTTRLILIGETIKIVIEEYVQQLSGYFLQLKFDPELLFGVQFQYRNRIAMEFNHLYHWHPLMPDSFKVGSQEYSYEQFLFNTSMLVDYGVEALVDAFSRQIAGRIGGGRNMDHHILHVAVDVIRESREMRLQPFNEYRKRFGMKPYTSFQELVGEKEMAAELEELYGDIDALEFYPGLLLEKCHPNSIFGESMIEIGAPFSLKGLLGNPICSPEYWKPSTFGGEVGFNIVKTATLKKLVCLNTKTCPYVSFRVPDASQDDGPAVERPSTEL
- assay remarks: Human whole blood cyclooxygenase assay, COX-1 (clotting-induced TXB2 production)
- protocol conditions: clotting 1 h, n=3, read-out: IC50 for inhibition of clotting-induced TXB2 level
property name: IC50 (µM)
Kindly provide the numeric value in µM only, without the unit symbol.

Using the record for `CC(=O)OC/C(=C(\C(=O)OCCCCCCO[N+](=O)[O-])c1ccccc1)c1ccc(S(C)(=O)=O)cc1` , report its IC50.
7.8

###

- subject of test: COX-2 (Homo sapiens)
- Construct: Fresh blood is collected in heparinized tubes by venipuncture from healthy male volunteers; from tissue; host or cells: fresh heparinized human whole blood from healthy male volunteers, LPS-stimulated for 24 h
- Sequence (P35354 18-604): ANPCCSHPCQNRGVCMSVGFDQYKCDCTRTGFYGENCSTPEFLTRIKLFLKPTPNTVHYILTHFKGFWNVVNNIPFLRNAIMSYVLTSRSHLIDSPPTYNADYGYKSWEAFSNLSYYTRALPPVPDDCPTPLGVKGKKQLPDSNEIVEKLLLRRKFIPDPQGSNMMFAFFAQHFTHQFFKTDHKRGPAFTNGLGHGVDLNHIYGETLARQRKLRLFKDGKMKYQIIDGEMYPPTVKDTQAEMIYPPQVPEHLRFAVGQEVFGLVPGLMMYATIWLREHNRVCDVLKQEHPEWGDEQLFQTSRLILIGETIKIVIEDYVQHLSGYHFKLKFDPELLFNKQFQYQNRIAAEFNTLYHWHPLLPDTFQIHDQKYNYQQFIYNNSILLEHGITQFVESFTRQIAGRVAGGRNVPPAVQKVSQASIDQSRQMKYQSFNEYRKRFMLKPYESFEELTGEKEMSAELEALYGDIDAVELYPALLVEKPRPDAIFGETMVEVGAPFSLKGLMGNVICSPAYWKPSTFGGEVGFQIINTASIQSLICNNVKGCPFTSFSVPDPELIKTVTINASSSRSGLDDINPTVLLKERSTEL
- assay remarks: Human whole blood cyclooxygenase assay, COX-2 (LPS-induced PGE2 production)
- Type: cell-based
- protocol conditions: LPS-stimulated human whole blood, 24 hr, n=6; read-out: IC50 for the inhibition of PGE2 production in a human whole blood assay
property name: IC50 (µM)
A number alone suffices; assume µM.

IC50 for `CC(=O)OC/C(=C(\C(=O)OCCCCCCO[N+](=O)[O-])c1ccccc1)c1ccc(S(C)(=O)=O)cc1` ?
0.22
